Here the recorded Body weight of the animals, end, First time is given for each entry.
System: S180 sarcoma
Measurement Context: S180 sarcoma; Dosage 50 (mg/ml), ip × 10qd; first time
# output: bare number, implied unit g

Record excerpt, results attached:
COC(=O)c1cc2c([nH]c3ccccc32)c(-c2ccc(OC)cc2)n1 | 26.4
O=C(O)c1cc2c3ccccc3n(Cc3ccccc3)c2cn1 | 26.3
CCOC(=O)Nc1cc2c3ccccc3n(Cc3ccccc3)c2cn1 | 27.0
OCc1cc2c3ccccc3n(Cc3ccccc3)c2cn1 [Compound 42, 9-benzyl-3-hydroxymethyl-β-carboline] | 24.7

Proceed to the following item.
Give its Body weight of the animals, end, First time value. Item: `CCCCn1c2ccccc2c2cc(C(=O)O)ncc21`
24.9

###

Recorded measurements of pIC50, one per entry
Tested on: Bel-7402
Assay Name: In vitro cytotoxicity, IC50 by MTT method, Bel-7402
Assay type: cell-based
Measurement Context: BeI7402, MTT; read-out: IC50
Quick note: pIC50 means taking -log10 of the concentration in moles per liter.

COc1ccc2c3ccnc(C)c3n(Cc3c(F)c(F)c(F)c(F)c3F)c2c1 | 4.40

Now consider the entry below.
Returns the measured pIC50 for the input molecule. Input: NNC(=O)c1cc2c(cn1)[nH]c1ccccc12 [Compound 20, β-carboline-3-carbohydrazine]
2.84

###

Test system: Hela
Assay Name: In vitro cytotoxicity, IC50 by MTT method, Hela
Type: cell-based
Measurement Context: Homo sapiens; Hela cell strain; read-out: IC50 Hela
Measurement Name: pIC50
Remember the convention: pIC50 equals -log10 of concentration in molar.

Please review the entries below; each comes with its answer.
CCCc1nc(C(=O)O)cc2c3ccccc3n(CCCc3ccccc3)c12 [Compound 75] | 3.85
COC(=O)c1cc2c3ccccc3n(Cc3ccccc3)c2cn1 [Compound 29] | 3.92
Cc1nc(C(=O)O)cc2c3ccccc3n(C)c12 [Compound 62] | 2.95
CCn1c2ccccc2c2cc(C(=O)O)ncc21 [Compound 35, 9-ethyl-β-carboline-3-carboxylic acid] | 3.74
Cn1c2ccccc2c2cc(C(=O)O)ncc21 [Compound 34, 9-methyl-β-carboline-3-carboxylic acid] | 4.05
CCOC(=O)c1cc2c3ccccc3n(C)c2c(C)n1 [Compound 56] | 3.96
CCCc1nc(C(=O)OCC)cc2c3ccccc3n(CCCc3ccccc3)c12 [Compound 71] | 4.22
O=C(O)c1cc2c3ccccc3n(Cc3ccccc3)c2cn1 [Compound 37, 9-benzyl-β-carboline-3-carboxylic acid] | 4.05

Value lookup for pIC50; key = CCOC(=O)c1cc2c3ccccc3n(Cc3ccccc3)c2c(C)n1 [Compound 58]
3.60

State the recorded pIC50 for this entry: Cn1c2ccccc2c2ccncc21 [Compound 81, 9-methyl-β-carboline]
3.48

Could you share which pIC50 value was measured for CCn1c2ccccc2c2ccncc21 [Compound 82, 9-ethyl-β-carboline] ?
3.64

Please give the measured pIC50 for this compound: Cn1c2ccccc2c2cc(C(=O)O)nc(-c3ccccc3)c21 [Compound 78]
3.77

Consider the compound shown here: CCCCn1c2ccccc2c2cc(C(=O)O)ncc21 [Compound 36, 9-butyl-β-carboline-3-carboxylic acid] What is its recorded pIC50?
4.22

Quick one: pIC50 for CCOC(=O)c1cc2c3ccccc3n(Cc3ccccc3)c2cn1 [Compound 33, ethyl 9-benzyl-β-carboline-3-carboxylate] ?
5.00
